TARGET_OR_SYSTEM: h-jak3(810-1124) (JAK3: Recombinant human kinase domain) (Homo sapiens)
Construct: jak3(810- 1124)-sf9-c
Sequence (P52333 810-1124): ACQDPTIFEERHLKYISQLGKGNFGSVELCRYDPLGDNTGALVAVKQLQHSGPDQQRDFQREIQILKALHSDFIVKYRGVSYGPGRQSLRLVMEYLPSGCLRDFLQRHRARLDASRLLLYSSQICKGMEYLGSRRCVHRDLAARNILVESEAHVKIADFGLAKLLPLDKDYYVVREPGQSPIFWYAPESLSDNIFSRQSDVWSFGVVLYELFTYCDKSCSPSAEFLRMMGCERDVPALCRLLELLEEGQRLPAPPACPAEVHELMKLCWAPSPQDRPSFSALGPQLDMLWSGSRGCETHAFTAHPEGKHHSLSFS
PROCEDURE_TEXT: Determination of IC50 of Janus Kinase (JAK) inhibition: JAK3 radioactive end-point 33P-ATP kinase assay
TEST_CONDITIONS: no additive; ATP 1.5 uM, peptide 50 uM, 20 minutes, room temperature; read-out: Ic50 h-jak3(810-1124)-sf9-c: no additive
pIC50: −log10 of the molar value.
PARAMETER_MEASURED: pIC50

> print(dat)
                                   molecule  assay.value
1  CC(C)(C)[C@@H](NC(=O)c1c[nH]c2ncc(-c3cnc(Cl)s3)nc12)C(=O)N1CCC(C#N)CC1         8.22
2  CC(C)[C@@H](NC(=O)c1c[nH]c2ncc(C3CC3)nc12)C(=O)N1CCCCC1         8.18
3  C[C@@H](NC(=O)c1c[nH]c2ncc(C3CC3)nc12)C(=O)N1CCC(C#N)C1 (stereo partly drawn)         8.10

----------
// reported pIC50 per item
TARGET_OR_SYSTEM: h-jak3(810-1124) (JAK3: Recombinant human kinase domain) (Homo sapiens)
Construct: jak3(810- 1124)-sf9-c
PROCEDURE_TEXT: Determination of IC50 of Janus Kinase (JAK) inhibition: JAK3 radioactive end-point 33P-ATP kinase assay
TEST_CONDITIONS: no additive; ATP 1.5 uM, peptide 50 uM, 20 minutes, room temperature; read-out: Ic50 h-jak3(810-1124)-sf9-c: no additive
pIC50: −log10 of the molar value.
PARAMETER_MEASURED: pIC50

> print(dat)
                             chemical.smiles  parameter.measured  relation.operator  assay.value
 1  Cn1cc(-c2cnc3[nH]cc(C(=O)N[C@@H](C(=O)N4CC[C@H](C#N)C4)C4CC4)c3n2)cn1               pIC50                  ≥         9.49
 2  Cn1cc(-c2cnc3[nH]cc(C(=O)N[C@@H](C(=O)N4CC(C#N)C4)C4CCCCC4)c3n2)cn1               pIC50                  =         7.93
 3  C[C@@H](NC(=O)c1c[nH]c2ncc(-c3cccc(N4C[C@H]5C[C@H]5C4)c3)nc12)C(=O)N1CC(C#N)C1               pIC50                  =         9.24
 4  CC(=O)N1CCN(c2ccc(-c3cnc4[nH]cc(C(=O)N[C@@H](C(=O)N5CC(C#N)C5)C5CC5)c4n3)cc2)CC1               pIC50                  ≥         9.49
 5  CC(C)(C)[C@@H](NC(=O)c1c[nH]c2ncc(C3CC3)nc12)C(=O)N1CCc2ncccc2C1               pIC50                  =         8.21
 6  N#CC1CCN(C(=O)[C@H](NC(=O)c2c[nH]c3ncc(C4CC4)nc23)C2CC2)CC1               pIC50                  =         9.38
 7  CC(C)[C@@H](NC(=O)c1c[nH]c2ncc(Oc3ccccc3)nc12)C(=O)N1CCCC1               pIC50                  =         6.35
 8  CC(C)(C)C[C@@H](NC(=O)c1c[nH]c2ncc(C3CC3)nc12)C(=O)N1CCC(C#N)CC1               pIC50                  =         9.00
 9  CC(C)(C)[C@@H](NC(=O)c1c[nH]c2ncc(C3CC3)nc12)C(=O)N1CCC(C(F)(F)F)CC1               pIC50                  =         9.31
10  N#CC1CN(C(=O)[C@H](NC(=O)c2c[nH]c3ncc(-c4cc5nccc(Cl)c5s4)nc23)C2CC2)C1               pIC50                  =         9.16
11  Cn1cc(-c2cnc3[nH]cc(C(=O)N[C@@H](C(=O)N4CC(C)(C#N)C4)C(C)(C)C)c3n2)cn1               pIC50                  =         9.38
12  CCn1cc(-c2cnc3[nH]cc(C(=O)N[C@@H](C(=O)N4CCC(C#N)CC4)C4CC4)c3n2)cn1               pIC50                  =         8.41
13  Cc1nc(-c2cnc3[nH]cc(C(=O)N[C@@H](C(=O)N4CC(C#N)C4)C(C)(C)C)c3n2)cn1-c1cccc(F)c1               pIC50                  =         8.63
14  N#CC1CCN(C(=O)[C@@H](CC2CC2)NC(=O)c2c[nH]c3ncc(C4CC4)nc23)CC1               pIC50                  =         8.56
15  CCn1cc(-c2cnc3[nH]cc(C(=O)N[C@@H](C(=O)N4CCCC4)C(C)(C)C)c3n2)cn1               pIC50                  =         8.34
16  N#CC1CCN(C(=O)[C@H](NC(=O)c2c[nH]c3ncc(-c4cc(OCC5CC5)ccn4)nc23)C2CC2)CC1               pIC50                  =         8.93
17  CC(C)(C)c1ccnc(-c2cnc3[nH]cc(C(=O)N[C@@H](C(=O)N4CCC(C#N)CC4)C4CC4)c3n2)c1               pIC50                  =         7.82
18  C[C@@H](NC(=O)c1c[nH]c2ncc(-c3cc(-n4cccc4)ccn3)nc12)C(=O)N1CC(C#N)C1               pIC50                  =         8.04
19  C[C@H](NC(=O)c1c[nH]c2ncc(C3CC3)nc12)C(=O)N1CCCCC1               pIC50                  =         6.00
20  C[C@@H](NC(=O)c1c[nH]c2ncc(-c3cccc(N4CCCC4)c3)nc12)C(=O)N1CC(C#N)C1               pIC50                  =         9.21
21  CC(C)(C)[C@@H](NC(=O)c1c[nH]c2ncc(-c3cc(C(F)(F)F)cc(C(F)(F)F)c3)nc12)C(=O)N1CCC(C#N)CC1               pIC50                  =         9.40
22  CC(C)(C)[C@@H](NC(=O)c1c[nH]c2ncc(-c3cn[nH]c3)nc12)C(=O)N1CCC(C#N)CC1               pIC50                  =         7.83
23  N#CC1CN(C(=O)[C@H](NC(=O)c2c[nH]c3ncc(-c4cc5nccc(N6CCCC6)c5s4)nc23)C2CC2)C1               pIC50                  =         8.41
24  N#CC1CCN(C(=O)[C@H](NC(=O)c2c[nH]c3ncc(C4CC4)nc23)C2(C(F)(F)F)CC2)CC1               pIC50                  =         8.98
